# Mouse Smad7 mRNA expression (% inhibition), Ileum listing for each entry below
Test system: mouse Smad7 mRNA
METHOD_SUMMARY: Murine Smad7 mRNA expression after oral administration in BALB/c mice (Example 11)
Format: in vivo
MEASUREMENT_SETUP: 500 mg/kg/day oral for 3 weeks, 24 hours after last dose, ileum
k = constrained ethyl (cEt); d = 2'-deoxy (DNA)
PARAMETER_MEASURED: Mouse Smad7 mRNA expression (% inhibition), Ileum

{"columns": ["SUBSTANCE", "MEASUREMENT_TARGET", "EXPERIMENTAL_VALUE"],
 "data": [
  ["798781 (CGTAAGATTCACAGCA; 3-10-3 cEt gapmer, further chemistry not given here) [compound 798781]", "mouse Smad7 mRNA", 0],
  ["830025 (antisense TTTGTAAATCGAAAGC; 3-10-3 cEt gapmer, further chemistry not given here) [compound 830025]", "mouse Smad7 mRNA", 0],
  ["772797 (AATGAACTGTATCTCC; sugars from the 5' end k3 d10 k3, all phosphorothioate, methylation of C not given here) [compound 772797]", "mouse Smad7 mRNA", 8],
  ["790615 (CCAATGAGAATGCTTC; 3-10-3 cEt gapmer, further chemistry not given here) [compound 790615]", "mouse Smad7 mRNA", 0]
]}

---

Test system: human SMAD7 mRNA
METHOD_SUMMARY: Antisense inhibition of human SMAD7 mRNA expression in Hep3B cells by 3-10-3 cEt gapmers, 10,000 nM, electroporation (Example 2)
Type: cell-based
MEASUREMENT_SETUP: Hep3B cells, electroporation with 10,000 nM antisense oligonucleotide, approximately 24 hours, RTS5062, percent inhibition of SMAD7 mRNA relative to untreated control cells
Strand notation (5' to 3'): a small letter for the sugar, then the base; units joined by * are phosphorothioate-linked, units joined directly phosphodiester-linked; [ ] holds rarer units or linkages, { } end groups; capitals alone tell only the bases. k = constrained ethyl (cEt); [5mC] = 5-methylcytosine; d = 2'-deoxy (DNA)
Reported % Inhibition values are given for each entry in this list.
PARAMETER_MEASURED: % Inhibition (%)

{"columns": ["SUBSTANCE", "EXPERIMENTAL_VALUE"],
 "data": [
  ["799804 (kA*k[5mC]*kA*dG*dA*d[5mC]*dA*dG*dA*dG*dA*dA*dG*kG*kA*kT; antisense) [compound 799804]", 38],
  ["799587 (kT*kT*k[5mC]*dA*d[5mC]*dA*dG*dG*dT*d[5mC]*dA*d[5mC]*dA*kT*kG*kG; antisense) [compound 799587]", 42],
  ["799565 (kA*kG*kT*dA*dA*dA*d[5mC]*dA*dA*dT*dA*d[5mC]*d[5mC]*k[5mC]*kT*k[5mC]; antisense) [compound 799565]", 79],
  ["799762 (antisense kG*kT*k[5mC]*d[5mC]*dT*dA*dA*dA*dG*dA*d[5mC]*dG*dG*k[5mC]*kT*k[5mC]) [compound 799762]", 21],
  ["799642 (kG*k[5mC]*kA*dA*dA*dT*d[5mC]*d[5mC]*dT*dT*dT*d[5mC]*d[5mC]*kA*kT*k[5mC]; antisense) [compound 799642]", 53],
  ["799530 (kG*k[5mC]*kT*d[5mC]*dA*dA*dT*dG*dA*dG*dA*d[5mC]*dT*kG*kG*k[5mC]; antisense) [compound 799530]", 34]
]}

---

System: human SMAD7 mRNA
METHOD_SUMMARY: Dose-dependent inhibition of human SMAD7 mRNA expression in Hep3B cells (Example 3, Study 1 and 2)
Type: cell-based
MEASUREMENT_SETUP: 740 nM, electroporation, approximately 16 hours, Study 2, relative to untreated control cells
Strand notation (5' to 3'): a small letter for the sugar, then the base; units joined by * are phosphorothioate-linked, units joined directly phosphodiester-linked; [ ] holds rarer units or linkages, { } end groups; capitals alone tell only the bases. k = constrained ethyl (cEt); [5mC] = 5-methylcytosine; d = 2'-deoxy (DNA)

{"columns": ["SUBSTANCE", "UNITS", "% inhibition of SMAD7 mRNA expression"],
 "data": [
  ["799168 (antisense kG*k[5mC]*kT*dA*dA*dG*dA*dA*d[5mC]*dA*dG*dT*dG*kT*k[5mC]*kG) [compound 799168]", "%", 15],
  ["799878 (kG*k[5mC]*k[5mC]*d[5mC]*d[5mC]*d[5mC]*d[5mC]*dT*d[5mC]*d[5mC]*d[5mC]*d[5mC]*dG*kT*kG*k[5mC]; antisense) [compound 799878]", "%", 35],
  ["799511 (antisense kT*kA*kA*dT*dG*dA*d[5mC]*dA*dA*dT*dT*d[5mC]*d[5mC]*kA*kG*k[5mC]) [compound 799511]", "%", 0],
  ["799406 (antisense kG*kG*kG*dA*dA*d[5mC]*dA*dT*dG*dG*d[5mC]*d[5mC]*dT*kT*kT*k[5mC]) [compound 799406]", "%", 30],
  ["790476 (kT*kT*k[5mC]*dT*dT*dG*dA*dG*d[5mC]*dA*d[5mC]*d[5mC]*dG*kA*kG*kT; antisense) [compound 790476]", "%", 8],
  ["798696 (antisense kT*k[5mC]*k[5mC]*d[5mC]*d[5mC]*d[5mC]*dT*dG*d[5mC]*dG*d[5mC]*d[5mC]*d[5mC]*kT*k[5mC]*k[5mC]) [compound 798696]", "%", 0],
  ["830010 (antisense kG*kT*k[5mC]*dT*d[5mC]*dA*dA*dA*dT*dG*dG*dG*d[5mC]*kT*kT*k[5mC]) [compound 830010]", "%", 0],
  ["799402 (antisense kG*kG*kT*d[5mC]*dA*d[5mC]*dT*dG*dT*dT*d[5mC]*dT*d[5mC]*kT*k[5mC]*kT) [compound 799402]", "%", 0],
  ["772858 (kA*kG*kT*dG*dT*dT*d[5mC]*dA*dA*d[5mC]*dA*dA*dT*kG*k[5mC]*kT; antisense) [compound 772858]", "%", 7],
  ["799708 (antisense k[5mC]*kA*kA*dA*d[5mC]*dT*dT*dG*dT*dG*dG*dT*dA*kA*kA*kA) [compound 799708]", "%", 15],
  ["830099 (kG*k[5mC]*k[5mC]*dT*dT*dT*dG*dG*dA*dA*dT*dT*dA*kG*kT*kA; antisense) [compound 830099]", "%", 42],
  ["830095 (kT*kG*kA*dG*dT*dA*dA*dA*d[5mC]*dA*dA*dT*dA*k[5mC]*k[5mC]*k[5mC]; antisense) [compound 830095]", "%", 3]
]}

---

Tested on: human SMAD7 mRNA
METHOD_SUMMARY: Dose-dependent inhibition of human SMAD7 mRNA expression in Hep3B cells (Example 3, Study 1 and 2)
Format: cell-based
MEASUREMENT_SETUP: 20000.0 nM, electroporation, approximately 16 hours, Study 1
Strand notation (5' to 3'): a small letter for the sugar, then the base; units joined by * are phosphorothioate-linked, units joined directly phosphodiester-linked; [ ] holds rarer units or linkages, { } end groups; capitals alone tell only the bases. e = 2'-O-(2-methoxyethyl) (MOE); [5mC] = 5-methylcytosine; d = 2'-deoxy (DNA)
Each entry below carries its recorded % inhibition of SMAD7 mRNA expression.

{"columns": ["SUBSTANCE", "% inhibition of SMAD7 mRNA expression, %"],
 "data": [
  ["771397 (antisense eG*eA*eG*e[5mC]*eG*dG*d[5mC]*dG*dG*d[5mC]*dG*dG*d[5mC]*d[5mC]*d[5mC]*eG*eA*eG*eG*eG) [compound 771397]", 51],
  ["771671 (antisense eT*e[5mC]*eA*eG*eG*dA*dG*dT*d[5mC]*d[5mC]*dT*dT*dT*d[5mC]*dT*e[5mC]*eT*e[5mC]*eT*e[5mC]) [compound 771671]", 49],
  ["771742 (antisense eA*eG*eA*e[5mC]*eA*dG*dA*dT*d[5mC]*dT*d[5mC]*dT*dG*dA*dA*eG*eT*e[5mC]*eA*eG) [compound 771742]", 23],
  ["771632 (antisense eA*eA*eT*e[5mC]*e[5mC]*dT*dT*d[5mC]*dT*dT*dG*dG*dA*dG*dG*eG*eA*eA*eG*eG) [compound 771632]", 64],
  ["771661 (antisense eA*eA*eT*eG*e[5mC]*dT*dT*d[5mC]*dT*d[5mC]*dT*dT*dG*dT*dT*e[5mC]*eA*eT*eT*eT) [compound 771661]", 28]
]}

---

Tested on: human peripheral blood mononuclear cells (PBMCs)
METHOD_SUMMARY: Human PBMC activation assay, cytokine levels (IL-10, IL-6, MCP-1, TNF-α) in supernatant after 24 hours (Example 9)
MEASUREMENT_SETUP: human PBMC supernatant after 24 hours; 8 μM oligonucleotide
Levels of MCP-1 overview
PARAMETER_MEASURED: Levels of MCP-1 (pg/mL)

{"columns": ["SUBSTANCE", "PARAMETER_MEASURED", "EXPERIMENTAL_VALUE"],
 "data": [
  ["829994 (GGAGGCAGGGCCGCGA; 3-10-3 cEt gapmer, further chemistry not given here) [compound 829994]", "Levels of MCP-1", 3370.0],
  ["830037 (antisense CTATTGGCTGATCTGG; 3-10-3 cEt gapmer, further chemistry not given here) [compound 830037]", "Levels of MCP-1", 1917.1],
  ["790615 (CCAATGAGAATGCTTC; 3-10-3 cEt gapmer, further chemistry not given here) [compound 790615]", "Levels of MCP-1", 449.0],
  ["830025 (antisense TTTGTAAATCGAAAGC; 3-10-3 cEt gapmer, further chemistry not given here) [compound 830025]", "Levels of MCP-1", 750.0],
  ["830121 (AGAATCAAGCCCTGGC; 3-10-3 cEt gapmer, further chemistry not given here) [compound 830121]", "Levels of MCP-1", 717.1],
  ["736697 (antisense GTCGCCCCTTCTCCCCGCAGC; chemistry not fully specified) [compound 736697]", "Levels of MCP-1", 2306.8],
  ["798781 (CGTAAGATTCACAGCA; 3-10-3 cEt gapmer, further chemistry not given here) [compound 798781]", "Levels of MCP-1", 582.7]
]}

Data credit: patent US10517889B2
